Numbers sourced from the supplement of paper PMC7411054.

// lowest phenotypically active concentration lookup, one value per entry
# Tested on: WPMY1-CANX-COX4
# protocol-text: lowest phenotypically active concentration; higher = less potent
# condition-info: treatment time: 24 h
Numeric only. Scale: µM

O=C1NN(c2ccc(F)c(Cl)c2)C(=O)/C1=C\c1ccc([N+](=O)[O-])o1 | 9

Specify lowest phenotypically active concentration for Cc1cccc(-c2nn(C(=S)Nc3ccccc3)cc2-c2ccnc3ccccc23)n1 and stop.
9

* * *

# Tested on: HepG2-ACTB-RAB5A
# protocol-text: phenotypically active (imaging signature differs from DMSO and reproducible) at any of 0.3-9 uM (binary (1 = active, 0 = inactive)); higher = active
# condition-info: treatment time: 24 h
Respond with a class label; see yes = active, no = inactive

These solved cases illustrate the format of a correct answer.
Cc1cccc(-c2n[nH]cc2-c2ccc(F)c(-c3cnn(CCO)c3)c2)n1 | no
Cc1c(C(=O)N2CCOc3ccc(-c4ccc(N)nc4)cc3C2)ccc(S(C)(=O)=O)c1F | yes
COc1ccccc1-c1c[nH]c2ncc(-c3cncc(C(=O)N(C)C)c3)cc12 | yes

// return assay outcome for O=C(COc1cccc2c(=O)[nH]ccc12)c1ccccc1
no

// return assay outcome for COCCOC(=O)C1=C(C)NC(C)=C(C(=O)OC(C)C)C1c1cccc([N+](=O)[O-])c1 (centres undefined)
no

// return assay outcome for CC(=O)N1CCN(c2ccc(OC[C@H]3CO[C@](Cn4ccnc4)(c4ccc(Cl)cc4Cl)O3)cc2)CC1
no

// return assay outcome for C#C[C@]1(O)CC[C@H]2[C@@H]3CCc4cc(OC)ccc4[C@H]3CC[C@@]21C
no

// return assay outcome for CC(C)NCC(O)COc1cccc2ccccc12 (centres undefined)
no

// return assay outcome for O=c1cc(N2CCOCC2)oc2c(-c3ccccc3)cccc12
yes
